The measurements presented in this section are drawn from ChEMBL document CHEMBL3507680.

# Assay notes: Human HepG2 cell viability assay in 384 well format
# Type: toxicity, cell-based
# Parameters: dose 125 nL, time 70.5 hour; concentration not given beside the values
# Particulars: HepG2 cells, read-out: Inhibition
Consider the following compounds; for each one, report its cytotoxicity at 70.5 h.
Give bare numbers, in %.

For orientation, consider the following solved cases.
INSERT INTO results (compound, metric, readout_units, data_value) VALUES
  ('Cc1cc(F)ccc1N1CCCC(NC(=O)CCCn2ccnc2)C1 (stereo not given)', 'cytotoxicity at 70.5 h', '%', -26),
  ('Cc1cc2[nH]c(O)nc2cc1NCc1ccccc1', 'cytotoxicity at 70.5 h', '%', -12.7);

List the reported cytotoxicity at 70.5 h of each compound below.
1. CCC1=N[C@@]2(CC[C@@H]3CN(CC4CC4)C[C@@H]32)C(=O)N1C
2. CCOc1ccc2[nH]c(=O)c(CN3CCN(S(N)(=O)=O)CC3)cc2c1
3. CC(C)c1cnc(CN(C)C2CCN(CCc3ccccn3)C2)o1 (stereo not given)
4. O=C(Cn1ccc2cc(Br)ccc21)NC[C@@H]1CCCN2CCCC[C@H]12
5. CN(C)c1ncc(-c2cc(C(=O)NCCO)n(CC3CC3)c2)cn1
6. CN1CCN(CCn2cnc3c(F)cccc3c2=O)CC1

1: -14.1; 2: -11.9; 3: 13.1; 4: 9.59; 5: -6; 6: -1.43

List the reported cytotoxicity at 70.5 h of each compound below.
1. CC(=O)Nc1nc(C(=O)N2CCCC(n3ccnc3C)C2)cs1 (stereo not given)
2. CN(Cc1cccc(C#N)c1)Cn1nc(C(C)(C)C)ccc1=O

[-14.1, -0.146]
